Values compiled from PubChem BioAssay AID493208.

Assay Protocol: Acumen qHTS Assay for Inhibitors of the mTORC1 Signaling Pathway in MEF (Tsc2-/-, p53-/-) Cells: Sytravon; also: nearly all actives have a fitted effect of over 50% in size
Condition Label: phospho-rpS6 immunofluorescence/PI, 24 h; series mostly up to 38.3 µM
In all, about 44,000 compounds went through this assay and about 340 (0.77%) were called active. Not shown: some 5% with an inconclusive outcome. Calls follow the shape of the dose curve; as a rule, active = well fitted inhibition curve with a large enough effect; inconclusive = small, poorly fitted or top-dose-only effect; inactive = flat fitted curve, though single readings scatter. This excerpt belongs to a sample that is enriched for actives.
Can you answer with just one of these options? active, inactive

Observe how each entry below is paired with its result.
Compound: CCCCN1CC(c2nc3ccccc3n2CCCCOc2ccc(C)cc2C)CC1=O (stereo not drawn)
Qualitative Label: inactive
//
Compound: O=C(NCc1ccccc1)c1cc(-c2cccc(Cl)c2)on1
Qualitative Label: inactive
//
Compound: Cc1nn(CC(=O)N2CCN(c3cccc(C(F)(F)F)c3)CC2)c(=O)c2cc3sccc3n12
Qualitative Label: inactive
//
Compound: COc1ccc(-c2nnc(SCC(=O)Nc3ccc(C(C)C)cc3)nc2-c2ccc(OC)c(OC)c2)cc1OC
Qualitative Label: inactive
//
Compound: COc1ccc(-c2nc(S(=O)(=O)c3ccccc3)c(N3CCCCC3)o2)cc1
Qualitative Label: inactive
//
Compound: COc1ccccc1NC(=O)C(=O)c1cc(C)n(-c2ccccc2F)c1C
Qualitative Label: inactive
//
Compound: COc1ccccc1-c1noc(CSc2nnc(-c3ccccc3)n2-c2ccc(C)c(C)c2)n1
Qualitative Label: inactive
//
Compound: COc1ccc(C)cc1N(CC(=O)N1CCC(C)CC1)S(=O)(=O)c1ccc(C)cc1
Qualitative Label: inactive

// param item: Cc1cccc(NC(=O)C2CCN(S(=O)(=O)c3c(C)noc3/C=C/c3ccco3)CC2)c1 ; yields the recorded call inactive

# outcome recorded in this test, key = CCOc1ccc(NC(=O)CN(Cc2ccccc2)S(=O)(=O)c2ccc(Cl)cc2)cc1 inactive

Assay result, entry O=C(NCCCO)C(=O)Nc1c2c(nn1-c1ccccc1)CSC2 — outcome? inactive

For this compound, state the assay outcome: Cc1ccc2nc(/C(C#N)=C/c3ccc(-c4ccc(C(=O)OC(C)C)cc4)o3)[nH]c2c1 inactive

What is the recorded call for this compound in the test? Cc1ccc(C)c(N2CCN(CCCNC(=O)Nc3ccc(Cl)cc3)CC2)c1 active
